These data points were gathered from patent US20240092745A1.

assay: Determination of drug solubility in aqueous and organic solvent; type: physicochemical; conditions: thermodynamic from solid; Table 3B; water; drug added to 50 mg/mL; read-out: Solubility Water
measuredProperty: solubility

Worked cases, answers included:
>  <molecule>
CCCCCCCCCCCCCCCCCC(=O)O[C@@H](C)C(=O)O[C@@H](C)C(=O)O[C@H](COc1nsnc1N1CCOCC1)CN(C(C)=O)C(C)(C)C [Compound 66-1, N-Acyl-Timolol-PLA (n = 2) Stearate]

>  <solubility>
< 1000 µg/mL

$$$$
>  <molecule>
CC(=O)O[C@@H](C)C(=O)O[C@@H](C)C(=O)O[C@H](COc1nsnc1N1CCOCC1)CN(C(=O)[C@H](C)OC(=O)[C@H](C)OC(C)=O)C(C)(C)C

>  <solubility>
< 100 µg/mL

$$$$
>  <molecule>
CCCCCCCCCCCCCCCCCC(=O)O[C@@H](C)C(=O)O[C@@H](C)C(=O)O[C@@H](C)C(=O)O[C@@H](C)C(=O)O[C@H](COc1nsnc1N1CCOCC1)CN(C(C)=O)C(C)(C)C [Compound 67-1, N-Acyl-Timolol-PLA (n = 4) Stearate]

>  <solubility>
< 1000 µg/mL

$$$$

Here's the next entry for you.
**Q:** Which solubility reading was recorded for the molecule CC(=O)OC(C)C(=O)OC(C)C(=O)OC(C)C(=O)OC(C)C(=O)O[C@H](COc1nsnc1N1CCOCC1)CN(C(=O)C(C)OC(=O)C(C)OC(C)=O)C(C)(C)C (stereo partly shown) ?
**A:** < 7 µg/mL

----------
Recorded solubility values for a group of compounds are listed next.
test: Determination of drug solubility in aqueous and organic solvent; format: physicochemical; conditions: organic solvent or mixture, thermodynamic from solid; Table 3A; DMSO; read-out: Solubility DMSO

Consider the worked cases shown below.
>  <compound>
CC(=O)O[C@@H](C)C(=O)O[C@@H](C)C(=O)N1CCN(C(C)=O)C1=Nc1ccc2nccnc2c1Br [Compound 114-4, Brimonidine-acetyl PLA(n=2)-N-Acetate]

>  <solubility>
100 mg/mL

$$$$
>  <compound>
CC(=O)O[C@@H](C)C(=O)O[C@@H](C)C(=O)N1CCN(C(=O)[C@H](C)OC(=O)[C@H](C)OC(C)=O)C1=Nc1ccc2nccnc2c1Br

>  <solubility>
> 50 mg/mL

$$$$

Kindly review the next compound as well.
**Q:** Recorded solubility of CCCCCCCCCCCCCCCCCC(=O)O[C@@H](C)C(=O)O[C@@H](C)C(=O)O[C@@H](C)C(=O)O[C@@H](C)C(=O)NS(=O)(=O)c1cc2c(s1)S(=O)(=O)C(C)CC2NCC (stereo partly drawn) , please.
**A:** > 50 mg/mL

----------
Here, each record is paired with measured solubility data.
assay: Determination of drug solubility in aqueous and organic solvent; type: physicochemical; conditions: organic solvent or mixture, thermodynamic from solid; Table 3B; DMSO; read-out: Solubility DMSO;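 note: solid drug suspended at 50 mg/mL nominal in each solvent, vortexed and sonicated, then dissolved concentration in filtered supernatant quantified by HPLC against a calibration curve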

>  <compound>
COc1cccc(CN(CCOC(=O)[C@H](C)OC(=O)[C@H](C)OC(=O)[C@H](C)OC(=O)[C@H](C)OC(C)=O)C(=O)Nc2ccc(-c3cn[nH]c3)cc2)c1

>  <solubility>
> 50 mg/mL

$$$$
>  <compound>
CC(=O)OC(C)C(=O)OC(C)C(=O)OC(C)C(=O)OC(C)C(=O)N(C[C@@H](COc1nsnc1N1CCOCC1)OC(=O)C(C)OC(=O)C(C)OC(C)=O)C(C)(C)C (stereo partly drawn)

>  <solubility>
> 50 mg/mL

$$$$

**Q:** Recorded solubility for CC(=O)OC(C)C(=O)OC(C)C(=O)OC(C)C(=O)OC(C)C(=O)O[C@H](COc1nsnc1N1CCOCC1)CN(C(=O)C(C)OC(=O)C(C)OC(C)=O)C(C)(C)C (stereo partly drawn) , please?
**A:** > 50 mg/mL
